log10 Ki for assorted compounds
Biological target: Glutamate receptor ionotropic, NMDA 1 (Rattus norvegicus, UniProt P35439)
Assay: Compound was evaluated for its ability to displace [3H]TCP from PCP N-methyl-D-aspartate glutamate receptor in rat brain
Format: tissue-based
assay_endpoint: log10 Ki (log10 of the value in nM)

>  <compound>
c1ccc([C@]2(N3CCCCC3)C[C@H]3C[C@H]3C2)cc1

>  <assay_result>
2.81

$$$$
>  <compound>
c1ccc([C@@]2(N3CCCCC3)CC[C@H]3C[C@H]32)cc1

>  <assay_result>
3.91

$$$$
>  <compound>
c1ccc([C@]2(N3CCCCC3)CC[C@@H]3C[C@@H]32)cc1

>  <assay_result>
4.46

$$$$
>  <compound>
c1ccc([C@@]2(N3CCCCC3)C[C@H]3C[C@H]3C2)cc1

>  <assay_result>
2.85

$$$$
>  <compound>
c1ccc(C2(N3CCCCC3)CCCCC2)cc1 [PHENCYCLIDINE]

>  <assay_result>
1.81

$$$$
>  <compound>
c1ccc([C@]2(N3CCCCC3)CC[C@H]3C[C@H]32)cc1 (racemic)

>  <assay_result>
2.76

$$$$

These measurements were taken from ChEMBL document CHEMBL1126186.
